# Test system: C57BL/6J mice
# Method Description: mouse maximal electroshock seizure threshold model using minimal sample sizes (mini-MEST)
# Condition Details: 50 mg/kg p.o., 30 min post dose
Observed Property: CC50 +/− SEM (mA)
Please state the figure in mA; there is no need to write the unit.

Example compounds with recorded CC50 +/− SEM:
                                   compound   u  reported
0  CCCc1cc(O)c(-c2c(C)c(Cl)cn3ccnc23)c(O)c1 [Compound 4]  mA      80.9
1  Cc1c(Cl)cn2ccnc2c1-c1c(O)cc(Cl)cc1O [Compound 19]  mA      57.3

In the following, a different compound is considered.
Task: Item CCCc1cc(O)c(-c2c(C3CC3)ccn3ccnc23)c(O)c1 [Compound 18] has what recorded CC50 +/− SEM?
Result: 49.9
